# Test system: B16
# assay_explanation: Cytotoxic ratio of inhibition of B16 melanoma cell proliferation after 40 hour incubation relative to taxol
# Assay type: functional, Mus musculus
Please note: ED50 ratio exactly at 10 is criterion not met. Only values below 10 get criterion met.

# compound, discrete_label
measured = [
    ("CC(=O)O[C@H]1C(=O)[C@@]2(C)[C@H]([C@H](OC(=O)c3ccccc3)[C@]3(O)C[C@H](OC(=O)[C@H](O)[C@@H](NC(=O)c4c(F)c(F)c(N=[N+]=[N-])c(F)c4F)c4ccccc4)C(C)=C1C3(C)C)[C@]1(OC(C)=O)CO[C@@H]1C[C@@H]2O", "criterion not met"),
    ("CC(=O)O[C@@]12CO[C@@H]1C[C@H](O)[C@@]1(C)C(=O)[C@H](O)C3=C(C)[C@@H](OC(=O)[C@H](O)[C@@H](NC(=O)OC(C)(C)C)c4ccccc4)C[C@@](O)([C@@H](OC(=O)c4ccccc4)[C@H]21)C3(C)C.O.O.O [DOCETAXEL]", "criterion met"),
    ("CC(=O)O[C@H]1C(=O)[C@@]2(C)[C@H]([C@H](OC(=O)c3ccccc3)[C@]3(O)C[C@H](OC(=O)[C@H](O)[C@@H](NC(=O)CC(C)C)c4ccccc4)C(C)=C1C3(C)C)[C@]1(OC(C)=O)CO[C@@H]1C[C@@H]2O", "criterion met"),
    ("CC(=O)O[C@H]1C(=O)[C@@]2(C)[C@H]([C@H](OC(=O)c3ccccc3)[C@]3(O)C[C@H](OC(=O)[C@H](O)[C@@H](NC(=O)c4ccccc4)c4ccccc4)C(C)=C1C3(C)C)[C@]1(OC(C)=O)CO[C@@H]1C[C@@H]2O [PACLITAXEL]", "criterion met"),
    ("CC(=O)O[C@H]1C(=O)[C@@]2(C)[C@H]([C@H](OC(=O)c3ccccc3)[C@]3(O)C[C@H](OC(=O)[C@H](O)[C@@H](NC(=O)CC(C)(C)C)c4ccccc4)C(C)=C1C3(C)C)[C@]1(OC(C)=O)CO[C@@H]1C[C@@H]2O", "criterion met"),
    ("CC(=O)O[C@H]1C(=O)[C@@]2(C)[C@H]([C@H](OC(=O)c3ccccc3)[C@]3(O)C[C@H](OC(=O)[C@H](O)[C@@H](NC(=O)C(C)(C)C)c4ccccc4)C(C)=C1C3(C)C)[C@]1(OC(C)=O)CO[C@@H]1C[C@@H]2O", "criterion not met"),
]
